All values here come from patent US5843941A.

Test system: farnesylated proteins F1, F2 and F3 in Met18b-2 cells
Test Summary: Inhibition of intracellular farnesylation in intact Met18b-2 cells, Triton-soluble proteins F1, F2, F3
Type: cell-based, Chinese hamster
Condition Summary: Cricetulus griseus, read-out: EC 90% "B isomer"
Form field: EC90 (one value per entry).
Readout: EC90 (µM)

{"Molecule": "CN(C(=O)[C@@H](N)CSSC(C)(C)C)C1N=C(c2ccccc2)c2ccccc2N(CC(=O)N[C@@H](Cc2ccccc2)C(=O)OC2CCCCC2)C1=O (stereo partly drawn) [compound 117]", "Reported": 3}
{"Molecule": "CN(C(=O)[C@@H](N)CSSC(C)(C)C)C1N=C(c2ccccc2)c2cc(Cl)ccc2N(CC(=O)N[C@@H](Cc2ccccc2)C(=O)OC2CCCCC2)C1=O (stereo partly drawn) [compound 120]", "Reported": 5}
{"Molecule": "CN(C(=O)[C@@H](N)CS)C1N=C(c2ccccc2)c2cc(Cl)ccc2N(Cc2ccc(C(F)(F)F)cc2)C1=O (stereo partly drawn) [compound 106]", "Reported": 50}
